All values here come from PubChem BioAssay AID743266.

Biological target: Parathyroid hormone/parathyroid hormone-related peptide receptor (Homo sapiens) (UniProt Q03431)
Sequence (Q03431 whole entry, looked up): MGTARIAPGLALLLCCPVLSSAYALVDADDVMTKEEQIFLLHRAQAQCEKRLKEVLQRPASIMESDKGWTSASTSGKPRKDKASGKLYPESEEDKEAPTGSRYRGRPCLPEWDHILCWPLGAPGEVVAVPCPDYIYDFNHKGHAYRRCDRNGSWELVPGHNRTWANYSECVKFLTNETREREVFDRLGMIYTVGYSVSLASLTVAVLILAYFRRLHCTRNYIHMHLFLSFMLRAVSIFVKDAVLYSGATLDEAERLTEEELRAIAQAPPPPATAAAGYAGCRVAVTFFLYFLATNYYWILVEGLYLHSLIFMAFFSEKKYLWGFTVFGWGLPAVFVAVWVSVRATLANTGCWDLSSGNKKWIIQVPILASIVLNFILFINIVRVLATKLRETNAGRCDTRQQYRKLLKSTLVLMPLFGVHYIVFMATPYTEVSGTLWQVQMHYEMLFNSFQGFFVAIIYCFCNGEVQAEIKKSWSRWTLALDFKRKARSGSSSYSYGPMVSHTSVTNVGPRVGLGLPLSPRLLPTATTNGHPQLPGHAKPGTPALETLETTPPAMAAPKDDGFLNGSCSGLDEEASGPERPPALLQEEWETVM
Experiment: qHTS for PTHR1 Agonists: Primary Screen; further: nearly all actives have a fitted effect of over 55% in size
Settings: HEK293 GP2 PTHR1 cells, GloSensor cAMP luminescence, 1 h; series mostly up to 115 µM
Text: The goal of the proposed studies is to discover new compounds that act as potent agonists on the parathyroid hormone receptor type-1 (PTHR1). […] To that end, we performed a quantitative high-throughput screening (qHTS) of the Molecular Libraries Probe Centers Network (MLPCN) compound libraries at the NIH Chemical Genomics Center (NCGC) for the parathyroid hormone receptor type-1 (PTHR1) using a unique HEK-293-derived cell line (GP2) that expresses the PTHR1 and a glosensor cAMP reporter construct. […]
The campaign covered roughly 410,000 compounds. About 310 (0.076%) were called active. Another 2% or so got no clear call; they are omitted. The call rests on the fitted dose curve; in most records, active means well fitted activation curve with a large enough effect; inconclusive means small, poorly fitted or top-dose-only effect, or another doubt; inactive means no such curve, though single readings can be large or run the other way. For the sample, actives were picked, then their nearest neighbours and some compounds at random.
Outcome (select one): active, inactive

[ask] # lookup: test call for "COc1cccc(NC(=O)N2CCN(C(=O)c3nsc4ccccc34)CC2)c1"
[reply] inactive

[ask] # lookup: test call for "CCOC(=O)c1c(C)[nH]c(CCC(=O)NCCCN2CCN(c3cccc(Cl)c3)CC2)c1C"
[reply] inactive

[ask] # lookup: test call for Cc1ccsc1CN(C(=O)c1oc2ccc(Br)cc2c1C)C1CCS(=O)(=O)C1 (stereo not given)
[reply] inactive

[ask] # lookup: test call for COc1ccc(C2c3c(oc4ccccc4c3=O)C(=O)N2Cc2ccc3c(c2)OCO3)cc1 (stereo not given)
[reply] inactive

[ask] # lookup: test call for "CCCCN(C)CCCNC(=O)CN1N=C(c2ccc(OC)cc2)CCC1=O"
[reply] inactive

[ask] # lookup: test call for "CCCCNC(=O)c1cc(-c2ccc(Cl)c(Cl)c2)on1"
[reply] inactive

[ask] # lookup: test call for "Cc1ccccc1-c1nc2scc(CCNC(=O)C(=O)Nc3ccc(F)cc3F)n2n1"
[reply] inactive

[ask] # lookup: test call for "CCC(CC)c1nn2cc(-c3ccccc3)nc2s1"
[reply] inactive

[ask] # lookup: test call for "CSc1nn(Cc2cccc(C)c2)c(N)c1S(=O)(=O)c1ccccc1"
[reply] inactive

[ask] # lookup: test call for "Cc1cccc(C)c1-n1ncc(C(=O)NCCCN2CCCCC2)c1C1CCN(C(=O)OC(C)(C)C)CC1"
[reply] active
